target: SHP2-C SH2; experiment: SH2 binding enrichment of the phosphorylated peptide, bacterial display (enrichment ratio); higher = better substrate or ligand; peptides without Tyr show the background
Measured Property: SH2 binding enrichment

biopolymer_sequence="STASGYSDVTD [DTX2_Y425]" measured_property="SH2 binding enrichment" observed_value=1.11

(A) GFVEDYRPPFY [ACVRL1_Y421_I417F]
(B) TVFENYVADIK [RHOA_Y42_E47K]
(C) SSYSRYIMMPN [LEF1_Y114_G113R]
(D) FDEFRYRSFIK [CFTR_Y517_V520F_YF]
Problem: With regard to SH2 binding enrichment, arrange the entries in ascending order, please. Returns: the labels listed in the requested order.
Result: D, B, A, C

(I) ALHHPYGCDVE [ABL2_Y80_R78H]
(II) FFLGAYDRFLP [SLC22A5_Y486_V481F_YF]
Problem: Form field 'greater SH2 binding enrichment' accepts I or II ; which applies? Use the label to indicate which entry you chose.
Result: II

(A) SRGSSYSSIPK [FLNC_Y2625]
(B) DTNIAYWLHPR [POMT1_Y581]
Problem: Returns the identifier with the smallest measured SH2 binding enrichment among A and B . Use the label to indicate which entry you chose.
Result: A
(A: 0.563, B: 1.08)

====

target: EPHB2 (UniProt P29323); assay: phosphorylation enrichment, bacterial display (enrichment ratio); higher = better substrate or ligand; peptides without Tyr show the background
Sequence (P29323 whole entry, looked up): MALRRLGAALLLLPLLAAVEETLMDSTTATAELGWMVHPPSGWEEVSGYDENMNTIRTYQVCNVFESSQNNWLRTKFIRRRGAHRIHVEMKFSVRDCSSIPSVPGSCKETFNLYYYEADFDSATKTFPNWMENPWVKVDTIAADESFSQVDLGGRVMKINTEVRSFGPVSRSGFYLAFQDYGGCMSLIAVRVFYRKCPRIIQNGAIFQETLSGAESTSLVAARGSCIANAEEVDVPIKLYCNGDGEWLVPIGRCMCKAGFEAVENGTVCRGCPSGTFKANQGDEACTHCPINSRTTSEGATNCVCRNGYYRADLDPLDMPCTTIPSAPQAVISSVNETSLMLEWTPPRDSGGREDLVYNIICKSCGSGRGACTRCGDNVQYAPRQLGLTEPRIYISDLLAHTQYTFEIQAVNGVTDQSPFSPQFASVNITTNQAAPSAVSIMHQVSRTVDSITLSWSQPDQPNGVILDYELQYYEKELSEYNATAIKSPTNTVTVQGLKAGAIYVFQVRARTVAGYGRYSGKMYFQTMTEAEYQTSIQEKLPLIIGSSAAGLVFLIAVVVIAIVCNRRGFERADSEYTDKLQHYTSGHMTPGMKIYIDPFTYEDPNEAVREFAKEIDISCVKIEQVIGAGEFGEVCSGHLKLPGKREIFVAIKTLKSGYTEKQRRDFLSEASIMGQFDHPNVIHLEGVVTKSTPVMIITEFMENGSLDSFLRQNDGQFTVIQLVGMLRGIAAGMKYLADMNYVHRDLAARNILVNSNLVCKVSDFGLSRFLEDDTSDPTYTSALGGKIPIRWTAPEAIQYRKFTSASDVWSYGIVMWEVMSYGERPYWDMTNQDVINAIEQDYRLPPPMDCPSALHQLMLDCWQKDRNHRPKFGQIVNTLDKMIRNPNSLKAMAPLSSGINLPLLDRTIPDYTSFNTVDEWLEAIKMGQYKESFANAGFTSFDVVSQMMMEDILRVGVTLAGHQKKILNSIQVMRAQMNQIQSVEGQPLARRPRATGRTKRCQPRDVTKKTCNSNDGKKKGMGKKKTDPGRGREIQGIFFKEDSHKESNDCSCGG
Measured Property: phosphorylation enrichment
Enter the number alone.

Some entries whose results are on file:
biopolymer_sequence="FSGKAYADEEQ [CRIM1_Y826_R831Q]" measured_property="phosphorylation enrichment" observed_value=0.675
biopolymer_sequence="ENFSEYQEISV [HEMGN_Y150_A154S]" measured_property="phosphorylation enrichment" observed_value=1.46
biopolymer_sequence="SIKNKYVTALY [KCNH2_Y611_D609N]" measured_property="phosphorylation enrichment" observed_value=0.498
biopolymer_sequence="LNTFHYAGVSA [POLR2A_Y1109]" measured_property="phosphorylation enrichment" observed_value=0.415
biopolymer_sequence="TTKAKYKTPIY [PLD2_Y573_T577I]" measured_property="phosphorylation enrichment" observed_value=0.46

The record that follows has no phosphorylation enrichment shown yet.
Value of measured phosphorylation enrichment for the entry VIGRMYDFHVL [RPF2_Y109_YF] : 0.659

====

phosphorylation enrichment: recorded values
test system: c-Src; experiment: phosphorylation enrichment, bacterial display (enrichment ratio); higher = better substrate or ligand; peptides without Tyr show the background
Enter the number alone.

Some entries whose results are on file:
biopolymer_sequence="PAKPRYRARQR [KCNJ11_Y26_E23K]" system_tested=c-Src observed_value=0.763
biopolymer_sequence="FSQNIYIQNRN [PKP2_Y631_YF]" system_tested=c-Src observed_value=0.45
biopolymer_sequence="MSDVPYVMNRG [ACAT1_Y161_N158D]" system_tested=c-Src observed_value=0.439
biopolymer_sequence="FVTSMYNEILM [TRPV1_Y310]" system_tested=c-Src observed_value=0.693
biopolymer_sequence="TLNVRHESVQA [CEACAM7_Y236_Y236H]" system_tested=c-Src observed_value=0.466
biopolymer_sequence="KRLWDYGMSSS [F8_Y1728_E1723K]" system_tested=c-Src observed_value=0.394
biopolymer_sequence="PRAGVYPEKDQ [DNM2_Y626_L621P]" system_tested=c-Src observed_value=0.682
biopolymer_sequence="QNTGVYYDLYG [PTPN11_Y62_D61V]" system_tested=c-Src observed_value=7.18

Value of measured phosphorylation enrichment for the entry MPQNEYIELHC [NSA2_Y6_R11C] : 0.625

Value of measured phosphorylation enrichment for the entry RQGKDYVGAIP [KDR_Y951] : 0.487

Value of measured phosphorylation enrichment for the entry GKLIFYDLRGE [KARS1_Y145] : 0.413

Value of measured phosphorylation enrichment for the entry LLLLFCVVRYC [MPZ_Y177_Y177C] : 2.84

Value of measured phosphorylation enrichment for the entry NACGLYHTMNG [GATA5_Y216_K218T] : 3.06

Value of measured phosphorylation enrichment for the entry LGKGSYAKVKS [TSSK2_Y23] : 1.53

Value of measured phosphorylation enrichment for the entry AIFEGYALPHA [ACTC1_Y171_P166A_YF] : 0.414

Value of measured phosphorylation enrichment for the entry WFPSTYVEEDE [VAV3_Y842] : 0.549

Value of measured phosphorylation enrichment for the entry HYGNNYTDVLQ [MACC1_Y803_R804T] : 0.816

Value of measured phosphorylation enrichment for the entry KWHREYNFKYV [RICTOR_Y835_S837F] : 0.38

Value of measured phosphorylation enrichment for the entry FFLGAYDRFLP [SLC22A5_Y486_V481F_YF] : 3.75

Value of measured phosphorylation enrichment for the entry SKAYAYVHFDS [PABPC5_Y149_G146A] : 0.365

Value of measured phosphorylation enrichment for the entry VCHELYNAIRD [PBRM1_Y54_T56A] : 1.33

Value of measured phosphorylation enrichment for the entry YGAHNHHPLPV [OAT_Y55_Y55H] : 0.506

Value of measured phosphorylation enrichment for the entry EARRVYRDIIH [ALDH5A1_Y175_G176R] : 0.41

====

phosphorylation enrichment: recorded values
test system: AncSZ; test: phosphorylation enrichment, bacterial display (enrichment ratio); higher = better substrate or ligand; peptides without Tyr show the background
Enter the number alone.

biopolymer_sequence="ETKTPYTVILI [SBDS_Y128_R126T]" observed_value=0.999
biopolymer_sequence="DASENYFVMDS [TMEM240_Y77_T80M]" observed_value=1.91
biopolymer_sequence="GVASDYKCVDP [VPS13B_Y1991_I1994V]" observed_value=1.05
biopolymer_sequence="ETKKQYNSFTF [TMED3_Y85_D86N_YF]" observed_value=0.64
biopolymer_sequence="PGGKIYISPLK [RB1_Y805_N803K]" observed_value=0.598

Value of measured phosphorylation enrichment for the entry KLPFPYDDPFS [GPX2_Y127_YF] : 1.05

Value of measured phosphorylation enrichment for the entry TTKAKYKTPIY [PLD2_Y573_T577I] : 0.823

Value of measured phosphorylation enrichment for the entry SSLMKYQQNVS [EGFEM1P_Y160_P157L] : 0.491

Value of measured phosphorylation enrichment for the entry VKFLGYPPPEI [KDR_Y357_A352V_YF] : 0.692

Value of measured phosphorylation enrichment for the entry RRFSSYSQMEN [PKP1_Y120] : 2.29

Value of measured phosphorylation enrichment for the entry ALPVFYAATIA [SLC20A2_Y187] : 0.823

====

target: c-Src SH2; experiment: SH2 binding enrichment of the phosphorylated peptide, bacterial display (enrichment ratio); higher = better substrate or ligand; peptides without Tyr show the background
Measured Property: SH2 binding enrichment

biopolymer_sequence="KNKNRYKNILP [PTPN11_Y279]" observed_value=0.637
biopolymer_sequence="NGRQCYSCKGN [PLAUR_Y217]" observed_value=1.01
biopolymer_sequence="SVTCTHSPALN [TP53_Y126_Y126H]" observed_value=0.444

(1) LSGVIYVILGK [PMP22_Y153_R157G]
(2) IIRFNYLLDVL [FGFR4_Y237_S232I_YF]
(3) FSCLPYRRLAY [SLC52A2_Y305_G306R]
Problem: With regard to SH2 binding enrichment, arrange the entries in ascending order, please. Returns: the labels listed in the requested order.
Result: 3, 1, 2
(3: 0.448, 1: 0.653, 2: 1.13)

(1) EARRVYRDIIH [ALDH5A1_Y175_G176R]
(2) LSIDRYHAIVF [NPSR1_Y147_YF]
(3) AEDKPYAELWT [MPI_Y46_M51T]
(4) MPPHIYAITDT [MYH9_Y151]
Problem: With regard to SH2 binding enrichment, arrange the entries in ascending order, please. Returns: the labels listed in the requested order.
Result: 1, 2, 3, 4

(a) LKRCQYVTEKV [ALDOA_Y204]
(b) VEKGSYSALLA [ABCC2_Y845]
(c) LIYTNYEVGKD [GSTP1_Y112_A114V]
Problem: hey, can you rank those sequences up there by SH2 binding enrichment? biggest number first please Returns: the labels listed in the requested order.
Result: b, c, a

(1) RTEAQYRFIYM [PTPN11_Y511_Q506R]
(2) SVQVEYMKTIL [GLYATL2_Y127_D126E]
Problem: Form field 'greater SH2 binding enrichment' accepts 1 or 2 ; which applies? Use the label to indicate which entry you chose.
Result: 2

====

phosphorylation enrichment: recorded values
tested on: c-Src; assay: phosphorylation enrichment, bacterial display (enrichment ratio); higher = better substrate or ligand; peptides without Tyr show the background
Enter the number alone.

Value of measured phosphorylation enrichment for the entry MSSHHYDFKKF [ZNF445_Y428_YF] : 0.415
